TESTED TARGET: Polθ protein (amino acids 2-2590) (Homo sapiens, UniProt O75417)
Sequence (O75417 2-2590): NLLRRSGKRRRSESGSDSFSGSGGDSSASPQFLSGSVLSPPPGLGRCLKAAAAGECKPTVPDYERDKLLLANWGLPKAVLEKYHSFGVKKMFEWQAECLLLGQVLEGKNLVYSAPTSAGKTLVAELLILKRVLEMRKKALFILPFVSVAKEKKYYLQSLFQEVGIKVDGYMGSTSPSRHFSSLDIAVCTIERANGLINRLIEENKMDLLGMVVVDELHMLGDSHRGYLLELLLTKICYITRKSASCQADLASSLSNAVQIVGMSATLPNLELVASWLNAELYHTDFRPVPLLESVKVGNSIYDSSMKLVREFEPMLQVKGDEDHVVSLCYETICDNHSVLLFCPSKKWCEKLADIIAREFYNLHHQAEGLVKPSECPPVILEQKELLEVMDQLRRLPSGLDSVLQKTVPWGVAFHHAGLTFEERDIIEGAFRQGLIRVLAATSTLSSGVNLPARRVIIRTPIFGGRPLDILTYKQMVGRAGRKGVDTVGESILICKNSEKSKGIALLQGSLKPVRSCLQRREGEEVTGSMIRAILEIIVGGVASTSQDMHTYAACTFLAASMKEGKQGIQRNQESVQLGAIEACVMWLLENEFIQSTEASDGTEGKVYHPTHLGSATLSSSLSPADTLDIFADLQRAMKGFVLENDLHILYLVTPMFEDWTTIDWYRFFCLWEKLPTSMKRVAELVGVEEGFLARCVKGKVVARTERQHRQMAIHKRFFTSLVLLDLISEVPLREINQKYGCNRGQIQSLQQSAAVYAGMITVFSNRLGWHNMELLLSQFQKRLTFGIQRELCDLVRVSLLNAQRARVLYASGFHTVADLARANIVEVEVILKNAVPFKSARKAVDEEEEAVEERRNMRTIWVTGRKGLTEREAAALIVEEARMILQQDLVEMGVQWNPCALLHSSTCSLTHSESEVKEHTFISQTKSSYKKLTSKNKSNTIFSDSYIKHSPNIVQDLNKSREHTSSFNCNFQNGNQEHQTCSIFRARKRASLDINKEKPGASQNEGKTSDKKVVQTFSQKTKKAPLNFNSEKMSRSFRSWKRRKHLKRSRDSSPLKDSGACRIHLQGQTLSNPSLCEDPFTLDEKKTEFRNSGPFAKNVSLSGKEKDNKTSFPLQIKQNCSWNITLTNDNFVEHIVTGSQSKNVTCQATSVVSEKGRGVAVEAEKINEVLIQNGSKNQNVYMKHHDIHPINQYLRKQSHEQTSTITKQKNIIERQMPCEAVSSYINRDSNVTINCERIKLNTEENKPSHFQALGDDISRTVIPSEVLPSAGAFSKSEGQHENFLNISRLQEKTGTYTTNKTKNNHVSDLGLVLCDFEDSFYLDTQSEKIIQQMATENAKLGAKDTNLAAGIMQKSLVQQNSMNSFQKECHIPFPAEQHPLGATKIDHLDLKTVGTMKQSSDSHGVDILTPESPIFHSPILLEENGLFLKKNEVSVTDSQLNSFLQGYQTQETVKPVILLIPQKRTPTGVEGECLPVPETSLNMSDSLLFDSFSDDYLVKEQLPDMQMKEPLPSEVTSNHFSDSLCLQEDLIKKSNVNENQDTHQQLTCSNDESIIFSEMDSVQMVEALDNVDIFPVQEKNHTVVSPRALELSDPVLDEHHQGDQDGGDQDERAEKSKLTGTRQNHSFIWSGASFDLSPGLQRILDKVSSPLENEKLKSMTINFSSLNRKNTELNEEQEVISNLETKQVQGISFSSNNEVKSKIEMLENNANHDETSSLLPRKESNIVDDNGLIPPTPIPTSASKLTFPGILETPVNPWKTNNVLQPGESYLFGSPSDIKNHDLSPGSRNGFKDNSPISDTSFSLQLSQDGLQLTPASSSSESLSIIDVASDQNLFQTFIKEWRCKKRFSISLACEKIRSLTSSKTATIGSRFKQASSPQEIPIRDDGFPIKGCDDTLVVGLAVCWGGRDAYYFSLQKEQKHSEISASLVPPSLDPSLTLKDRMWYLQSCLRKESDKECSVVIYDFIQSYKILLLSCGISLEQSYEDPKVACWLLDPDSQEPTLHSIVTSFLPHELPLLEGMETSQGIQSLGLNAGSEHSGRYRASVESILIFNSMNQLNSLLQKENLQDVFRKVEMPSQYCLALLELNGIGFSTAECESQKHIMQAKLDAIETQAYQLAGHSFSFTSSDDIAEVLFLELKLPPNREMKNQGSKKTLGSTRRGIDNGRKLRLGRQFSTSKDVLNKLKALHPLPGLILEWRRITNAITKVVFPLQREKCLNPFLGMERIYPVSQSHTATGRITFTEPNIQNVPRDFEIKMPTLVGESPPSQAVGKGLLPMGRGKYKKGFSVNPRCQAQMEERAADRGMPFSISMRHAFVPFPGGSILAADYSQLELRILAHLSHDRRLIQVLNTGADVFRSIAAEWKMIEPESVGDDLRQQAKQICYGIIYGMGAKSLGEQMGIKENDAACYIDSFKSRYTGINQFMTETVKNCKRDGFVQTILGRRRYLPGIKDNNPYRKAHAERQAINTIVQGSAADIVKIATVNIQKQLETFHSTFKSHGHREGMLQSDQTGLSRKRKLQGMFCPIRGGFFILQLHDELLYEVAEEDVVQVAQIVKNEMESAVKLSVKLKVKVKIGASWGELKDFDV
ASSAY: Polθ full length enzyme potency assay (PicoGreen)
PARTICULARS: Polθ IC50 (nM), full length N-His, C-term FLAG tagged Polθ, PicoGreen fluorescence, 12 point concentration response
PROPERTY LABEL: IC50 (nM)
# unit: nM | format: bare number

Some solved cases for reference:
{"COMPOUND": "CC(=O)N(C)C1CCN(CCN2C[C@@H](C(=O)N(C)c3ccc(F)c(Cl)c3F)N(c3cc(C(F)(F)F)cc(C)n3)C2=O)C1 (stereo partly shown) [Example 207]", "TESTED TARGET": "Polθ protein (amino acids 2-2590) (Homo sapiens, UniProt O75417)", "IC50 / nM": 7}
{"COMPOUND": "Cc1cc(C)c(C#N)c(N2C[C@@H](O)C[C@H]2C(=O)N(C)c2ccc(F)c(C(F)(F)F)c2)n1 [Example 10]", "TESTED TARGET": "Polθ protein (amino acids 2-2590) (Homo sapiens, UniProt O75417)", "IC50 / nM": 316}
{"COMPOUND": "Cc1cc(C(C)(C)C)cc(N2C(=O)OC[C@H]2C(=O)N(C)c2ccc(F)c(Cl)c2)n1 [Example 123]", "TESTED TARGET": "Polθ protein (amino acids 2-2590) (Homo sapiens, UniProt O75417)", "IC50 / nM": 36}
{"COMPOUND": "CCN(C(=O)[C@@H]1C[C@H](N2CCOC[C@@H]2CO)CN1c1nc(C)cc(C(F)(F)F)c1C#N)c1ccc(F)c(Cl)c1 [Example 152]", "TESTED TARGET": "Polθ protein (amino acids 2-2590) (Homo sapiens, UniProt O75417)", "IC50 / nM": 26}
{"COMPOUND": "Cc1cc(C(F)(F)F)cc(N2C(=O)OC[C@H]2C(=O)N(C)c2ccc(C3CC3)c(Cl)c2)n1 [Example 173]", "TESTED TARGET": "Polθ protein (amino acids 2-2590) (Homo sapiens, UniProt O75417)", "IC50 / nM": 13}
{"COMPOUND": "CCN(C(=O)[C@@H]1C[C@H](NC2CNC(=O)C2)CN1c1cc(C(F)(F)F)cc(C)n1)c1ccc(F)c(F)c1 (stereo partly shown) [Example 137]", "TESTED TARGET": "Polθ protein (amino acids 2-2590) (Homo sapiens, UniProt O75417)", "IC50 / nM": 300}
{"COMPOUND": "Cc1cc(C(F)(F)F)cc(N2C(=O)N(CC3(O)CNC3)C[C@H]2C(=O)N(C)c2ccc(F)c(Cl)c2)n1 [Example 225]", "TESTED TARGET": "Polθ protein (amino acids 2-2590) (Homo sapiens, UniProt O75417)", "IC50 / nM": 17}
{"COMPOUND": "Cc1cc(C(F)(F)F)cc(N2C(=O)OC[C@H]2C(=O)N(C)c2ccc(Cl)c(C)c2)n1 [Example 84]", "TESTED TARGET": "Polθ protein (amino acids 2-2590) (Homo sapiens, UniProt O75417)", "IC50 / nM": 6}

Would you mind telling me what IC50 value was observed for Cc1cccc(N(C)C(=O)[C@@H]2CCC(=O)N2c2cc(C(F)(F)F)cc(C)n2)c1 [Example 59] ?
7

Entry Cc1cc(C(F)(F)F)cc(N2C(=O)N(CCN3CCN(CCO)CC3)C[C@H]2C(=O)N(C)c2ccc(F)c(Cl)c2F)n1 [Example 209] has what IC50?
8

So what does the record say about IC50 for Cc1cc(C(F)(F)F)cc(N2C(=O)NC[C@H]2C(=O)N(C)c2ccc3c(Cl)c[nH]c3n2)n1 [Example 240] ?
7

What IC50 value was documented for this compound, Cc1cc(C(F)(F)F)cc(N2C(=O)N(CC3(O)CCN(C)C3)C[C@H]2C(=O)N(C)c2ccc(F)c(Cl)c2F)n1 (stereo partly shown) [Example 223] ?
8

Would you kindly share the measured IC50 for Cc1cc(C(F)(F)F)cc(N2C(=O)N(CC3CN(C)CCO3)C[C@H]2C(=O)N(C)c2ccc(F)c(Cl)c2F)n1 (stereo partly shown) [Example 219] ?
11

I am curious: what IC50 value has been reported for Cc1cc(C(F)(F)F)cc(N2C(=O)[C@H]3OC(C)(C)O[C@H]3[C@H]2C(=O)N(C)c2ccc(F)c(Cl)c2F)n1 [Example 69] ?
69

Find the recorded IC50 belonging to Cc1cc(C(F)(F)F)cc(N2C(=O)N(CC(O)CN3CCC(F)(F)C3)C[C@H]2C(=O)N(C)c2ccc(F)c(Cl)c2F)n1 (stereo partly shown) [Example 216] and report it.
4

Endpoint output: IC50 of CCN(C(=O)[C@@H]1C[C@H](NC2COC2)CN1c1cc(C(F)(F)F)cc(C)n1)c1ccc(F)c(F)c1 [Example 138] . Value?
165

Which value of IC50 has been reported for Cc1cc(C(F)(F)F)cc(N2C(=O)N(CCN3CCC(C#N)CC3)C[C@H]2C(=O)N(C)c2ccc(F)c(Cl)c2F)n1 [Example 211] in the records?
5

So what does the record say about IC50 for Cc1cc(C(F)(F)F)cc(N2C(=O)OC[C@H]2C(=O)N(C)c2ccc3cc[nH]c3c2)n1 [Example 126] ?
11

Fill in: IC50 of Cc1cc(C(F)(F)F)cc(N2C(=O)N(CCN3CCNCC3)C[C@H]2C(=O)N(C)c2ccc(F)c(Cl)c2F)n1 [Example 192] is ___
9

What value of IC50 has been reported for the following compound? CCN(C(=O)[C@@H]1C[C@H](N[C@@H]2CCC[C@H]2O)CN1c1cc(C(F)(F)F)cc(C)n1)c1ccc(F)c(F)c1 [Example 133]
122

Which value of IC50 has been reported for CCN(C(=O)[C@@H]1C[C@H](N2CCOC(CO)C2)CN1c1nc(C)cc(C(F)(F)F)c1C#N)c1ccc(F)c(C)c1 (stereo partly shown) [Example 150] in the records?
11

Reported IC50, compound Cc1cc(C(F)(F)F)cc(N2C(=O)NC[C@H]2C(=O)N(c2ccc(F)c(Cl)c2F)C2CC2)n1 [Example 161] : ____
12
